assay: in vivo; conditions: rat, iv, 1 mg/kg
ENDPOINT: Vd (L/kg)

>>> data_value("CN1C(=O)N(c2cc(Cl)cc(Cl)c2)C(=O)[C@]12CN(c1ccc(C(=O)O)cn1)C[C@H]2c1ccc(C#N)cc1")
2.3

###

assay: in vivo; details: rat, po, 5 mg/kg
ENDPOINT: Cmax (nM)

>>> data_value("CN1C(=O)N(c2cc(Cl)cc(Cl)c2)C(=O)[C@]12CN(c1ccc(C(=O)O)cn1)C[C@H]2c1ccc(C#N)cc1")
2300

###

test: in vivo; details: dog, plasma, po, 5 mg/kg
ENDPOINT: AUC (µM·h)

>>> data_value("CN1C(=O)N(c2cc(Cl)cc(Cl)c2)C(=O)[C@]12CN(c1ccc(C(=O)O)cn1)C[C@H]2c1ccc(C#N)cc1")
102

###

species on record: Rattus norvegicus; details: in vivo, po, 5 mg/kg
ENDPOINT: Tmax (h)

>>> data_value("CN1C(=O)N(c2cc(Cl)cc(Cl)c2)C(=O)[C@]12CN(c1ccc(C(=O)O)cn1)C[C@H]2c1ccc(C#N)cc1")
1.7

###

experiment: in vivo; conditions: rat, iv, 1 mg/kg
ENDPOINT: MRT (h)

>>> data_value("CN1C(=O)N(c2cc(Cl)cc(Cl)c2)C(=O)[C@]12CN(c1ccc(C(=O)O)cn1)C[C@H]2c1ccc(C#N)cc1")
3.5

###

experiment: in vivo; details: mouse, iv, 1 mg/kg
ENDPOINT: half-life (min)

>>> data_value("CN1C(=O)N(c2cc(Cl)cc(Cl)c2)C(=O)[C@]12CN(c1ccc(C(=O)O)cn1)C[C@H]2c1ccc(C#N)cc1")
96

###

assay: in vivo; details: rat, iv, 1 mg/kg
ENDPOINT: half-life (h)

>>> data_value("CN1C(=O)N(c2cc(Cl)cc(Cl)c2)C(=O)[C@]12CN(c1ccc(C(=O)O)cn1)C[C@H]2c1ccc(C#N)cc1")
3.3

###

test: in vivo; details: dog, iv, 1 mg/kg
ENDPOINT: half-life (h)

>>> data_value("CN1C(=O)N(c2cc(Cl)cc(Cl)c2)C(=O)[C@]12CN(c1ccc(C(=O)O)cn1)C[C@H]2c1ccc(C#N)cc1")
4.7

###

experiment: in vitro; conditions: Purkinje fibers
ENDPOINT: inhibition at 30 µM

>>> data_value("CN1C(=O)N(c2cc(Cl)cc(Cl)c2)C(=O)[C@]12CN(c1ccc(C(=O)O)cn1)C[C@H]2c1ccc(C#N)cc1")
"< 5%"

###

assay: in vivo; conditions: rat, po, 5 mg/kg
ENDPOINT: bioavailability (%)

>>> data_value("CN1C(=O)N(c2cc(Cl)cc(Cl)c2)C(=O)[C@]12CN(c1ccc(C(=O)O)cn1)C[C@H]2c1ccc(C#N)cc1")
82

###

test: in vivo; conditions: dog, iv, 1 mg/kg
ENDPOINT: clearance (mL/min/kg)

>>> data_value("CN1C(=O)N(c2cc(Cl)cc(Cl)c2)C(=O)[C@]12CN(c1ccc(C(=O)O)cn1)C[C@H]2c1ccc(C#N)cc1")
0.5

###

assay: in vivo; settings: rat, plasma, po, 5 mg/kg
ENDPOINT: AUC

>>> data_value("CN1C(=O)N(c2cc(Cl)cc(Cl)c2)C(=O)[C@]12CN(c1ccc(C(=O)O)cn1)C[C@H]2c1ccc(C#N)cc1")
"13 µM·h"

###

test: in vivo; settings: dog, po, 5 mg/kg
ENDPOINT: bioavailability (%)

>>> data_value("CN1C(=O)N(c2cc(Cl)cc(Cl)c2)C(=O)[C@]12CN(c1ccc(C(=O)O)cn1)C[C@H]2c1ccc(C#N)cc1")
48

###

experiment: in vivo; details: dog, iv, 1 mg/kg
ENDPOINT: MRT (h)

>>> data_value("CN1C(=O)N(c2cc(Cl)cc(Cl)c2)C(=O)[C@]12CN(c1ccc(C(=O)O)cn1)C[C@H]2c1ccc(C#N)cc1")
6.9

###

test: in vivo; settings: mouse, plasma, po, 5 mg/kg
ENDPOINT: AUC (µM·h)

>>> data_value("CN1C(=O)N(c2cc(Cl)cc(Cl)c2)C(=O)[C@]12CN(c1ccc(C(=O)O)cn1)C[C@H]2c1ccc(C#N)cc1")
1.5

###

assay: in vivo; conditions: mouse, iv, 1 mg/kg
ENDPOINT: MRT (h)

>>> data_value("CN1C(=O)N(c2cc(Cl)cc(Cl)c2)C(=O)[C@]12CN(c1ccc(C(=O)O)cn1)C[C@H]2c1ccc(C#N)cc1")
1.7

###

test: in vivo; conditions: mouse, iv, 1 mg/kg
ENDPOINT: Vd (L/kg)

>>> data_value("CN1C(=O)N(c2cc(Cl)cc(Cl)c2)C(=O)[C@]12CN(c1ccc(C(=O)O)cn1)C[C@H]2c1ccc(C#N)cc1")
5.1

###

experiment: in vivo; conditions: dog, po, 5 mg/kg
ENDPOINT: Cmax (µM)

>>> data_value("CN1C(=O)N(c2cc(Cl)cc(Cl)c2)C(=O)[C@]12CN(c1ccc(C(=O)O)cn1)C[C@H]2c1ccc(C#N)cc1")
22
